- ASSAY INFO: CREB reporter modulators under forskolin, primary screen, cell-based, PC12, CRE-LacZ reporter, forskolin-stimulated (AID 1146);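 further: PC12 cells with 6xCRE LacZ reporter stimulated by forskolin 10 µM; beta-galactosidase reporter signal reflecting CREB driven transcription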
- CONDITION NOTES: luminescence, 4.5 h, higher = more signal, called active from +8 up or from −8 down
Output Yes for z-score not less than -0.9; output No otherwise.

Worked cases, answers included:
[
  {
    "MOLECULE": "C=CCC(OC(C)=O)[C@@H]1[C@@H](N(Cc2ccc(-c3cccc(C(F)(F)F)c3)o2)C(=O)Cc2ccc(F)cc2)c2cc(OCCCO)ccc2N1C(=O)c1ccc2ccccc2c1 (stereo partly specified)",
    "LABEL VALUE": "Yes"
  },
  {
    "MOLECULE": "COc1cc2c(cc1O)C(c1ccc(CN3CCCC3)cc1)N(Cc1ccc([N+](=O)[O-])o1)CC2 (stereo unspecified)",
    "LABEL VALUE": "Yes"
  },
  {
    "MOLECULE": "COCCOC(=O)N1C(=O)[C@@]2(c3cc(C#CCNC(N)=O)ccc31)[C@H](C(=O)NC[C@H](O)c1ccccc1)[C@H]1C(=O)O[C@H](c3ccccc3)[C@H](c3ccccc3)N1[C@@H]2c1ccc(OCCO)cc1",
    "LABEL VALUE": "No"
  }
]

(Q) Hi team, for NCCCC[C@@H]1NC(=O)[C@H]2C[C@@H](C(=O)NCc3ccc(F)cc3)[C@@H](c3cccc(OCCO)c3)N2C1=O , is the recorded z-score at or above -0.9?
(A) Yes

(Q) Please check the record COc1ccc([Si](C)(C)[C@H]2[C@H](CCO)O[C@@]3(C(=O)N(Cc4ccccc4)c4ccc(N(C=O)c5ccccc5)cc43)[C@@H]2C)cc1 and state if its z-score is at or above -0.9.
(A) No

====

- ASSAY INFO: COS7 lysate on small-molecule microarray, probe aHis, 635 nm (AID 1123);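 further: z-score combines 667nm fluorescence intensity with signal-to-noise per printed compound spot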
- CONDITION NOTES: COS7 cell lysate, fluorescence, higher = more signal
Reported composite z-score values for the following molecules.

[
  {
    "MOLECULE": "COC(=O)c1ccc([C@H](NC(=O)c2ccccc2)[C@]2(C)C[C@H]2C2CCCCC2)cc1",
    "composite z-score": 1.89
  },
  {
    "MOLECULE": "COCCOC(=O)N1C(=O)[C@@]2(c3cc(C#CC4(O)CCCCCC4)ccc31)[C@H](c1ccc(OCCO)cc1)N1[C@H](c3ccccc3)[C@H](c3ccccc3)OC(=O)[C@H]1[C@@H]2C(N)=O",
    "composite z-score": 0.615
  },
  {
    "MOLECULE": "COC(=O)[C@@]1(Cc2ccccc2)[C@H]2c3cc(C(=O)N4CCCC4)n(Cc4ccc(C(F)(F)F)nc4)c3C[C@H]2CN1C(=O)c1ccccc1",
    "composite z-score": 3.1
  },
  {
    "MOLECULE": "CCC[C@@H]1[C@@H](Sc2ccccc2)[C@@H](C(=O)O)[C@H](c2ccc(C)cc2)N1S(=O)(=O)c1ccc(C)cc1",
    "composite z-score": 2.65
  },
  {
    "MOLECULE": "COc1cc2c(cc1O)C(c1ccc(CN3CCCC3)cc1)N(Cc1cccc(OC(F)(F)F)c1)CC2 (centres undefined)",
    "composite z-score": 1.72
  }
]

The molecule listed as CCCCC(O)C1C=CC2C(=O)N(C)C(=O)C2N1Nc1ccccc1 (centres undefined) has a reported composite z-score of 2.06

The reported value for CCOC(=O)C1=CC[C@@H](c2ccc(F)cc2)N(S(=O)(=O)c2ccc(C)cc2)[C@H]1c1ccc([N+](=O)[O-])cc1 in terms of composite z-score is 2

Value of composite z-score reported for the molecule C=CCOC(=O)[C@@H]1[C@H]2C(=O)O[C@H](c3ccccc3)[C@H](c3ccccc3)N2[C@H](c2ccc(OCCOC(=O)[C@H]3C[C@H]4C(=O)NCC(=O)N4[C@H]3c3ccc(O)cc3)cc2)[C@@]12C(=O)Nc1ccc(I)cc12 is 1.94
